Entries and their measured drug sensitivity score follow.
# Tested on: BT-474
# method summary: drug sensitivity score (DSS) (DSS (dimensionless)); higher = more sensitive; extreme values may be limits of the assay
# condition parameters: 4-OH-tamoxifen in medium 0 µM; 72 h

Example entries begin here.
CN1CCN(c2ccc3nc(-c4c(N)c5c(F)cccc5[nH]c4=O)[nH]c3c2)CC1 [Dovitinib (CHIR-258)]: 0
Nc1cccc2c1CN(C1CCC(=O)NC1=O)C2=O (centres undefined) [Lenalidomide]: 0
Cc1cn(-c2cc(NC(=O)c3ccc(C)c(Nc4nccc(-c5cccnc5)n4)c3)cc(C(F)(F)F)c2)cn1 [Nilotinib]: 0
CO[C@H]1C[C@@H]2CC[C@@H](C)[C@@](O)(O2)C(=O)C(=O)N2CCCC[C@H]2C(=O)O[C@H]([C@H](C)C[C@@H]2CC[C@@H](OC(=O)C(C)(CO)CO)[C@H](OC)C2)CC(=O)[C@H](C)/C=C(\C)[C@@H](O)[C@@H](OC)C(=O)[C@H](C)C[C@H](C)/C=C/C=C/C=C/1C [Temsirolimus]: 0.668
CCc1cncnc1N1CCN(Cc2nc3ccc(C(F)(F)F)cc3[nH]2)CC1: 1.64

Problem: drug sensitivity score of COc1cc(Nc2c(C#N)cnc3cc(OCCCN4CCN(C)CC4)c(OC)cc23)c(Cl)cc1Cl [Bosutinib] on BT-474?
Result: 4.93

Problem: drug sensitivity score of Oc1ccc2c(c1)CC[C@H](c1ccccc1)[C@@H]2c1ccc(OCCN2CCCC2)cc1 [Lasofoxifene] on BT-474?
Result: 0

Problem: drug sensitivity score of CCCCC/C=C/C=C1/C(=O)C=C[C@@H]1C/C=C\CCCC(=O)O [15D-PGJ2] on BT-474?
Result: 0

Problem: drug sensitivity score of Nc1ncn([C@H]2C[C@H](O)[C@@H](CO)O2)c(=O)n1 [Decitabine (Dacogen)] on BT-474?
Result: 0

###

# Tested on: ZR-75-1
# method summary: viability inhibition at highest dose (% inhibition); higher = more growth inhibition
# condition parameters: 4-OH-tamoxifen in medium 1 µM; 72 h
measurement label: viability inhibition at highest dose
Reply briefly: the number, and no unit.

Example entries begin here.
CCN1CCN(c2ccc(Nc3cc(N(C)C(=O)Nc4c(Cl)c(OC)cc(OC)c4Cl)ncn3)cc2)CC1 [NVP-BGJ398] (drug 1000 nM): -10.3
COc1ccc(S(=O)(=O)Nc2cccnc2Nc2ccc(O)cc2)cc1 [ABT-751] (drug 10000 nM): 14.9

Read the next record carefully.
Problem: Data request, read-out viability inhibition at highest dose, for COc1cc(Nc2c(C#N)cnc3cc(OCCCN4CCN(C)CC4)c(OC)cc23)c(Cl)cc1Cl [Bosutinib] (drug 10000 nM)
Result: 28.8

###

Entries and their measured viability inhibition at highest dose follow.
# Tested on: ZR-75-1
# method summary: viability inhibition at highest dose (% inhibition); higher = more growth inhibition
# condition parameters: 4-OH-tamoxifen in medium 1 µM; 72 h
Reply briefly: the number, and no unit.

CCc1cncnc1N1CCN(Cc2nc3ccc(C(F)(F)F)cc3[nH]2)CC1 (drug 10000 nM): 28.3
Clc1ccc(Nc2nnc(Cc3ccncc3)c3ccccc23)cc1 [Vatalanib] (drug 10000 nM): -2.47
CC(=O)Nc1cccc(-n2c(=O)n(C3CC3)c(=O)c3c(Nc4ccc(I)cc4F)n(C)c(=O)c(C)c32)c1 (drug 250 nM): 5.16
COc1cc2ncnc(Nc3ccc(F)c(Cl)c3)c2cc1OCCCN1CCOCC1 [Gefitinib] (drug 10000 nM): 27.5
O=C1NC(=O)[C@@H](c2cn3c4c(cccc24)CCC3)[C@@H]1c1c[nH]c2ccccc12 [Tivatinib (ARQ 197)] (drug 1000 nM): 10.3
O=C(O)C(=O)O.[NH-][C@@H]1CCCC[C@H]1[NH-].[Pt+2] [Oxaliplatin] (drug 10000 nM): -0.0598

Read the next record carefully.
Problem: viability inhibition at highest dose of COc1cc(F)c(F)c(Nc2ccc(I)cc2F)c1NS(=O)(=O)C1(C[C@H](O)CO)CC1 [Refametinib (RDEA119)] (drug 10000 nM) on ZR-75-1?
Result: 14.9
